system: C. elegans; settings: Table S2, C. elegans SS assay, 110 μM, 0 h, averages of 4 data points
property: Percentage of motility inhibition 0 h (%)
Supply the numeric figure in %, leaving out any unit text.

Examples with their reported Percentage of motility inhibition 0 h follow.
O=C(O)CO [Glycolic acid] : 5
C[C@@]12CCc3occc3[C@H]1CC[C@@]13C[C@@H](CC[C@H]12)[C@@](O)(CO)C3 [Cafestol] : 0

Measured Percentage of motility inhibition 0 h, CC(C(O)c1ccc(O)cc1)N1CCC(Cc2ccccc2)CC1.CC(C(O)c1ccc(O)cc1)N1CCC(Cc2ccccc2)CC1.O=C(O)C(O)C(O)C(=O)O (stereo not drawn) [Ifenprodil (ta rtrate)] : 12

Measured Percentage of motility inhibition 0 h, C[C@@H]1O[C@@H](O[C@H]2[C@H](O[C@H]3CC[C@@]4(C)[C@@H](CC[C@]5(C)[C@@H]4CC=C4[C@@H]6CC(C)(C)CC[C@]6(C(=O)O[C@@H]6O[C@H](CO[C@@H]7O[C@H](CO)[C@@H](O[C@@H]8O[C@@H](C)[C@H](O)[C@@H](O)[C@H]8O)[C@H](O)[C@H]7O)[C@@H](O)[C@H](O)[C@H]6O)CC[C@]45C)[C@]3(C)CO)OC[C@H](O)[C@@H]2O)[C@H](O)[C@H](O)[C@H]1O [Hederacoside C] : 18

Measured Percentage of motility inhibition 0 h, OCC1=C[C@@H](O)[C@]2(O[C@@H]3O[C@H](CO)[C@@H](O)[C@H](O)[C@H]3O[C@@H]3O[C@H](CO)[C@@H](O)[C@H](O)[C@H]3O)C=CO[C@@H](O[C@@H]3O[C@H](CO)[C@@H](O)[C@H](O)[C@H]3O)[C@H]12 [Rehmannioside D] : 11

Measured Percentage of motility inhibition 0 h, CC(C)=CCC[C@@H](C)CCO [(R)-Citronellol] : 1

Measured Percentage of motility inhibition 0 h, CC(C)=CCC[C@](C)(O)[C@H]1CC[C@]2(C)[C@@H]1[C@H](O)C[C@@H]1[C@@]3(C)CC[C@H](O)C(C)(C)[C@@H]3CC[C@]12C [(20S)-Protopanaxadiol] : 21

Measured Percentage of motility inhibition 0 h, C=C(C)[C@@H]1CC[C@]2(C(=O)O[C@@H]3O[C@H](CO[C@@H]4O[C@H](CO)[C@@H](O[C@@H]5O[C@@H](C)[C@H](O)[C@@H](O)[C@H]5O)[C@H](O)[C@H]4O)[C@@H](O)[C@H](O)[C@H]3O)CC[C@]3(C)[C@H](CC[C@@H]4[C@@]5(C)CC[C@H](O[C@@H]6OC[C@H](O)[C@H](O)[C@H]6O[C@@H]6O[C@@H](C)[C@H](O)[C@@H](O)[C@H]6O)[C@@](C)(CO)[C@@H]5CC[C@]43C)[C@@H]12 [Pulchinenoside C] : 4

Measured Percentage of motility inhibition 0 h, Br.O=C(CC1NCCCC1O)Cn1cnc2cc(Br)c(Cl)cc2c1=O (stereo not drawn) [Halofuginone (hydrobromide)] : 4

Measured Percentage of motility inhibition 0 h, N[C@@H](CCl)C(=O)O [β‐Chloro‐L‐alanine] : 27

Measured Percentage of motility inhibition 0 h, O=C[C@H](O)[C@@H](O)[C@H](O)CO (racemic) [DL-Xylose] : 0

Measured Percentage of motility inhibition 0 h, CC(=O)[C@H]1CC[C@H]2[C@@H]3CC=C4C[C@@H](O)CC[C@]4(C)[C@H]3CC[C@]12C [Pregnenolone] : 11
